# measured target: CaRvs167-3
# test protocol: SPOT peptide array binding signal intensity (averaged, normalized) (arbitrary units (background-subtracted, floor 0; scale differs between SH3 domains)); higher = stronger binding of the SH3 domain to the peptide
measurement name: SPOT peptide array binding signal intensity
Numbers only.

Worked cases, SPOT peptide array binding signal intensity given:
- RRRDFGAPANKRPRR: 4.5
- VNIPSPSSSPPPIPK: 2.25
- PAPPPPPRASRPTPN: 6.25

# context switch: different binder, same SPOT peptide array binding signal intensity
Measured SPOT peptide array binding signal intensity, `RRRRRPHRIERPLSN` : 104
